Attribution: ChEMBL document CHEMBL1156230

# protocol_details: Plasma concentration in high fat/high cholesterol fed LDLR-deficient mouse at 0.6 mg/kg, qd administered with diet for 8 weeks measured after 3 hrs of last dose
# Format: ADME, organism-based
# Parameters: dose 0.6 mg/kg
# condition_info: po
attribute_measured: concentration at 3 h (ng/mL)
The figure you give is taken to be in ng/mL; do not add the unit.

Report concentration at 3 h, nothing else, for this molecule: Cc1nc2c(C(F)(F)F)cccc2nc1-c1ccc(-c2cccc(S(C)(=O)=O)c2)cc1
1020

* * *

# protocol_details: Half life in C57 mouse at 10 mg/kg, po
# Type: ADME, organism-based
# Parameters: dose 10 mg/kg, route oral
# condition_info: in vivo
attribute_measured: half-life

Report half-life, nothing else, for this molecule: Cc1nc2c(C(F)(F)F)cccc2nc1-c1ccc(-c2cccc(S(C)(=O)=O)c2)cc1
> 20 h
